IC50, Lck (p56^lck) (Homo sapiens), per-entry values.

Q: State the recorded IC50 for this entry: Cc1ccccc1-c1cc2cnc(Nc3ccc(N4CCOCC4)cc3)nc2nc1C(=O)NCCNS(C)(=O)=O [Example 5]
Ans: 1 to 20 nM

Q: State the recorded IC50 for this entry: CNCCNC(=O)c1nc2nc(Nc3cccc(NS(C)(=O)=O)c3)ncc2cc1-c1ccccc1C [Example 9]
Ans: 1 to 20 nM

Q: State the recorded IC50 for this entry: CS(=O)(=O)NCCNC(=O)c1nc2nc(Nc3ccc(N4CCOCC4)cc3)ncc2cc1-c1ccccc1C(F)(F)F [Example 11]
Ans: 1 to 20 nM

Q: State the recorded IC50 for this entry: CS(=O)(=O)NCCNC(=O)c1nc2nc(Nc3ccc4c(c3)S(=O)(=O)CCO4)ncc2cc1-c1ccccc1C(F)(F)F [Example 2]
Ans: 20 to 50 nM

Q: State the recorded IC50 for this entry: CNCCNC(=O)c1nc2nc(Nc3cccc(NC(C)=O)c3)ncc2cc1-c1ccccc1C [Example 8]
Ans: 1 to 20 nM

Q: State the recorded IC50 for this entry: CC(=O)Nc1cccc(Nc2ncc3cc(-c4ccccc4C)c(C(=O)NCCNS(C)(=O)=O)nc3n2)c1 [Example 3]
Ans: 11.8 nM

Q: State the recorded IC50 for this entry: CC(=O)Nc1cccc(Nc2ncc3cc(-c4ccccc4C)c(C(=O)NC[C@H]4CCCN4)nc3n2)c1 [Example 1]
Ans: 8 nM
